Hi there, I'd appreciate the recorded Trimeric HA Binding: RLU for every entry that follows.
- assay-target: recombinant homotrimeric HA A/Vietnam/1203/04 H5N1 (Influenza A virus A/VietNam/1203/2004(H5N1))
- assay-comment: protein microarray, purified IgG, trimeric HA
- settings: remark: other sources report otherwise
Give bare numbers, in RLU.

Below are worked cases with known answers.
- binder: "TCN-539 (5056_A08) (antibody, V domains shown) VH: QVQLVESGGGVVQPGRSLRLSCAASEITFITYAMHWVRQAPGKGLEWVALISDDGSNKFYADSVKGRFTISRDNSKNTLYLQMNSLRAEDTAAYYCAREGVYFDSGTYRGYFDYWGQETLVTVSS VL: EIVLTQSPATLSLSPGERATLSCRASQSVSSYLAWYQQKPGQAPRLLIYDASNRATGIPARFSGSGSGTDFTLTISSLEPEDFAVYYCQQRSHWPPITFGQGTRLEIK"
  quantitative-result: 636
- binder: "TCN-535 (5246_P19) (antibody, V domains shown) VH: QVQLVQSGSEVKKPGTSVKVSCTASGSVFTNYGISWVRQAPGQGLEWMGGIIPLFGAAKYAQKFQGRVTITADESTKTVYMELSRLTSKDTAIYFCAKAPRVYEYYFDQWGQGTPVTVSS VL: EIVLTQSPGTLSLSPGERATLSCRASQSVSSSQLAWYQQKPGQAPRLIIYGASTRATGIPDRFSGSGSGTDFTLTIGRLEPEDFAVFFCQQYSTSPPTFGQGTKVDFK"
  quantitative-result: 20800

Turning to the following binder.
**Query** Given the binder TCN-553 (5261_C18) (antibody, V domains shown) VH: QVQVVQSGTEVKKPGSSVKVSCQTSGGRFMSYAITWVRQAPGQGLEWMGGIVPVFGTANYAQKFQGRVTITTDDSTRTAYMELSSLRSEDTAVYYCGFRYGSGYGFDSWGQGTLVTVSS VL: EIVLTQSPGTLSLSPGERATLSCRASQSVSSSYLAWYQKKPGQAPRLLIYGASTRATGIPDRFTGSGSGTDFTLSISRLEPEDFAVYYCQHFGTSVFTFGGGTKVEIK , what is its reported Trimeric HA Binding: RLU?
**Result** 27200
